B1: FAM46C (parent)
chain: VRSRLEEAGIKVHDVRLNGSAAGH

Variants of: B1
Test: protein stability index of a GFP-peptide fusion (GPS, HEK-293T) (PSI 1-6); higher = more stable;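 note: lentivirally expressed fusions sorted by FACS into six bins by GFP to DsRed ratio, PSI derived from sequencing read proportions per bin multiplied by bin number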
Settings: c terminus: a fixed tail appended
protein stability index for assorted variants
Outcome measure: protein stability index

Mutation descriptor	Experimental result
A22P	2.37
G9C	3.03
L5D	4.35
R2F	2.04
V12G	4.04
H24A	3.06
H13Y	1.25
R4P	4.24
L5V	3.7
K11N	3.82
V12M	3.25
A21S	2.32
G23T	3.09
G23L	1.64
G19P	1.55
L5C	3.68
N18K	3.56
A8N	3.17
V15P	3.65
E6G	3.06
G23V	1.82
R2E	3.85
L17D	4
A22I	2.74
H24S	3.07
R4Q	3.52
H24M	2.15
G23W	2.18
R4F	1.89
G9P	3.67

All figures here come from the supplement of paper PMC10567573.
